- System: 2B.N2A9 (DNA, aptamer) CATCTGCAGTGTGGCACCATGGGCATTGGGGGGCGAGGGTGGTTGGAGCGTTTGTGTGCGACGTGCTGAGCGTGAATTCGC
- EXPERIMENTAL DETAILS: indirect competitive ELOSA (SA-HRP/TMB)
- TEST CONDITIONS: 37 °C, 1 h; 50 nM aptamer; competes with immobilised Neu5Gc-BSA (1 μg/mL coating)
OBSERVED PROPERTY: IC50 (ng/mL)
Lab book: enter the figure in ng/mL, no units written.

In the examples that follow, each entry is paired with its recorded IC50.
COMPOUND	ENDPOINT VALUE
CC(=O)N[C@H]1[C@H]([C@H](O)[C@H](O)CO)OC(O)(C(=O)O)C[C@@H]1O (stereo partly shown)	467.74
O=C(CO)N[C@H]1[C@H]([C@H](O)[C@H](O)CO)OC(O)(C(=O)O)C[C@@H]1O (stereo partly shown)	9.35

Please give the documented IC50 of O=C(O)C1(O)C[C@H](O)[C@@H](O)[C@H]([C@H](O)[C@H](O)CO)O1 (stereo partly shown)
1659.58
